Molecular target: TTR (Homo sapiens)
Construct: purchased SCIPAC (Sittingbourne, Kent, UK) P171-1
Experiment: Isothermal titration calorimetry (ITC)
Type: binding
Settings: Fig 8 isotherm, ± standard error of curve fitting; read-out: ITC Kd1 of shown isotherm

{"chemical.structure": "c1ccc2c(-c3cn[nH]c3)ccnc2c1", "Kd / µM": 0.26}

====

As shown below, each of these compounds has a reported FPPHR % at 50 μM value.
Target: Human transthyretin (TTR) thyroxine binding sites (Homo sapiens, UniProt P02766)
Construct: purchased SCIPAC (Sittingbourne, Kent, UK) P171-1
Test: TTR CZE Free Probe Peak Height Restoration (FPPHR) assay, 8-ANS displacement
Settings: compound 50 μM in Running Buffer; 10% minimum for a binder
readout.label: FPPHR % at 50 μM (%)

{"compound": "Cc1[nH]ncc1-c1ccccc1 [Compound 12T-0222]", "readout.label": "FPPHR % at 50 μM", "val": 25.63}
{"compound": "Clc1n[nH]c2ccccc12", "readout.label": "FPPHR % at 50 μM", "val": 24.84}
{"compound": "Clc1cc2cc[nH]c2cn1", "readout.label": "FPPHR % at 50 μM", "val": 12.83}
{"compound": "CN(C)Cc1c[nH]c2ncccc12", "readout.label": "FPPHR % at 50 μM", "val": 1.88}
{"compound": "c1cnc2[nH]ccc2c1", "readout.label": "FPPHR % at 50 μM", "val": 7.85}
{"compound": "Nc1[nH]ncc1-c1ccccc1", "readout.label": "FPPHR % at 50 μM", "val": 13.28}

====

Biological target: TTR in undiluted normal human reference plasma (Homo sapiens, UniProt P02766)
Construct: The TTR in plasma was immunoprecipitated by sheep anti-human prealbumin polyclonal antibody; tissue Precision Biologic Inc., Nova Scotia, Canada
Assay: 125I-T4 displacement assay in neat normal human plasma
Format: binding
Settings: read-out: Mean 125I-T4 IC50 ± SD (N = 3); neat normal human plasma; 4-parameter logistic fit
Could you mark each record true (1) if its IC50 falls strictly under 100 µM, and false (0) if it equals or exceeds it?

{"chemical.structure": "Cc1n[nH]c(-c2ccnc3ccccc23)n1", "target.desc": "TTR in undiluted normal human reference plasma (Homo sapiens, UniProt P02766)", "label.value": "false (0)"}
{"chemical.structure": "Cc1n[nH]c(C)c1-c1cccc2cccnc12", "target.desc": "TTR in undiluted normal human reference plasma (Homo sapiens, UniProt P02766)", "label.value": "true (1)"}
{"chemical.structure": "Cc1n[nH]c(N)c1-c1ccccc1", "target.desc": "TTR in undiluted normal human reference plasma (Homo sapiens, UniProt P02766)", "label.value": "false (0)"}
{"chemical.structure": "Nc1nc(-c2cccc3cccnc23)c2cn[nH]c2n1", "target.desc": "TTR in undiluted normal human reference plasma (Homo sapiens, UniProt P02766)", "label.value": "false (0)"}
{"chemical.structure": "Cc1n[nH]c(Cl)c1-c1cccc2cccnc12", "target.desc": "TTR in undiluted normal human reference plasma (Homo sapiens, UniProt P02766)", "label.value": "true (1)"}

====

As shown below, each of these compounds has a reported FPPHR % at 100 μM value.
Target: Human transthyretin (TTR) thyroxine binding sites (Homo sapiens, UniProt P02766)
Construct: purchased SCIPAC (Sittingbourne, Kent, UK) P171-1
Experiment: TTR CZE Free Probe Peak Height Restoration (FPPHR) assay, 8-ANS displacement
Settings: compound 100 μM in Running Buffer; 10% minimum for a binder
readout.label: FPPHR % at 100 μM (%)

{"chemical.structure": "c1ccc2[nH]ccc2c1", "readout.label": "FPPHR % at 100 μM", "val": 17.18}
{"chemical.structure": "N#Cc1ncnc2nc[nH]c12", "readout.label": "FPPHR % at 100 μM", "val": 4.78}
{"chemical.structure": "c1ccc2nc(-c3cn[nH]c3)ccc2c1", "readout.label": "FPPHR % at 100 μM", "val": 18.42}
{"chemical.structure": "c1ccc2c(-c3cn[nH]c3)ccnc2c1", "readout.label": "FPPHR % at 100 μM", "val": 64.23}
{"chemical.structure": "c1ncc2[nH]cnc2n1", "readout.label": "FPPHR % at 100 μM", "val": 5.29}
{"chemical.structure": "c1cncc(-c2nc3ccccc3[nH]2)c1", "readout.label": "FPPHR % at 100 μM", "val": 6.22}
{"chemical.structure": "N#Cc1c[nH]c2ccccc12", "readout.label": "FPPHR % at 100 μM", "val": 21.53}
{"chemical.structure": "c1ccc2[nH]ncc2c1", "readout.label": "FPPHR % at 100 μM", "val": 12.12}

====

As shown below, each of these compounds has a reported FPPHR % at 50 μM value.
Biological target: Human transthyretin (TTR) thyroxine binding sites (Homo sapiens)
Construct: purchased SCIPAC (Sittingbourne, Kent, UK) P171-1
Assay: TTR CZE Free Probe Peak Height Restoration (FPPHR) assay, 8-ANS displacement
Settings: compound 50 μM in Running Buffer; 10% minimum for a binder
readout.label: FPPHR % at 50 μM

{"chemical.structure": "Cc1n[nH]c(C)c1-c1cccc2cccnc12", "readout.label": "FPPHR % at 50 μM", "val": "59.77%"}
{"chemical.structure": "Cc1nn(C)c(N)c1-c1ccccc1", "readout.label": "FPPHR % at 50 μM", "val": "7.42%"}
{"chemical.structure": "N#Cc1c[nH]c2ccccc12", "readout.label": "FPPHR % at 50 μM", "val": "18.13%"}
{"chemical.structure": "c1ccc(-c2cn[nH]c2)cc1", "readout.label": "FPPHR % at 50 μM", "val": "14.93%"}
{"chemical.structure": "COC(=O)c1c[nH]c2ccccc12", "readout.label": "FPPHR % at 50 μM", "val": "16.40%"}
{"chemical.structure": "c1cc2[nH]ccc2cn1", "readout.label": "FPPHR % at 50 μM", "val": "5.03%"}
{"chemical.structure": "Nc1[nH]ncc1-c1ccc(Cl)cc1", "readout.label": "FPPHR % at 50 μM", "val": "25.65%"}
{"chemical.structure": "c1cc2cc[nH]c2cn1", "readout.label": "FPPHR % at 50 μM", "val": "3.73%"}
{"chemical.structure": "Nc1n[nH]c2nccc(-c3ccccc3)c12", "readout.label": "FPPHR % at 50 μM", "val": "36.17% tested at 50 µM"}

====

As shown below, each of these compounds has a reported pIC50 value.
Molecular target: TTR in undiluted normal human reference plasma (Homo sapiens)
Construct: The TTR in plasma was immunoprecipitated by sheep anti-human prealbumin polyclonal antibody; tissue Precision Biologic Inc., Nova Scotia, Canada
Test: 125I-T4 displacement assay in neat normal human plasma
Type: binding
Details: neat normal human plasma; 4-parameter logistic fit
pIC50: −log10 of the molar value.

{"compound": "c1ccc2c(-c3cn[nH]c3)ccnc2c1", "pIC50": 4.46}
{"compound": "NS(=O)(=O)c1cc(Cl)cc(Cl)c1 [SFL000006, 3,5-Dichlorobenzenesulphonamide]", "pIC50": 2.05}
{"compound": "O=C(O)c1ccccc1Nc1ccccc1 [N-Phenylanthranilic Acid, reference compound]", "pIC50": 3.75}
{"compound": "Nc1cc(Cl)cc(Cl)c1 [3,5-Dichloroaniline, reference compound]", "pIC50": 3.10}

====

Target: Human transthyretin (TTR) thyroxine binding sites (Homo sapiens)
Construct: purchased SCIPAC (Sittingbourne, Kent, UK) P171-1
Assay: TTR CZE Free Probe Peak Height Restoration (FPPHR) assay, 8-ANS displacement
Conditions: in words; concentrations (e.g. Tafamidis 10 µM, Diphenylamine 250 μM, Verapamil 300 µM, Acetazolamide 500 µM)
readout.label: change of free 8-ANS peak height with compound in the Running Buffer

{"compound": "COc1ccc(CCN(C)CCCC(C#N)(c2ccc(OC)c(OC)c2)C(C)C)cc1OC (centres unmarked) [Verapamil, reference compound]", "val": "changed minimally"}
{"compound": "CC(=O)Nc1nnc(S(N)(=O)=O)s1 [Acetazolamide, reference compound]", "val": "changed minimally"}
{"compound": "Nc1ccccc1S(N)(=O)=O [2-Aminobenzenesulphonamide, reference compound]", "val": "changed minimally"}

====

Molecular target: TTR (Homo sapiens, UniProt P02766)
Construct: purchased SCIPAC (Sittingbourne, Kent, UK) P171-1
Experiment: Isothermal titration calorimetry (ITC)
Type: binding
Conditions: 25 °C, PBS pH 7.8, 3% DMSO; read-out: ITC Kd2 ± SD (N = 3)
readout.label: Kd (nM)

{"chemical.structure": "Cc1n[nH]c(Cl)c1-c1cccc2cccnc12", "target.desc": "TTR (Homo sapiens, UniProt P02766)", "unit.label": "nM", "val": 331}
{"chemical.structure": "Cc1n[nH]c(C)c1-c1cccc2cccnc12", "target.desc": "TTR (Homo sapiens, UniProt P02766)", "unit.label": "nM", "val": 910}
{"chemical.structure": "c1ccc2c(-c3cn[nH]c3)ccnc2c1", "target.desc": "TTR (Homo sapiens, UniProt P02766)", "unit.label": "nM", "val": 1960}

Origin of the recorded values: paper PMC12077799
